Tested on: P. berghei ANKA strain
Assay Summary: In vitro potency against P. berghei ANKA
Format: cell-based
Experimental Setup: Plasmodium berghei, read-out: Potency (IC50; nM) Plasmodium spp. Pb ANKA
Parameter: IC50. Scope: all listed entries.

NC1=Nc2ccc(Cl)cc2[C@]1(O)c1ccccc1; 1690 nM
NC1=Nc2ccc(Cl)cc2C1(O)c1ccccc1 (stereo not drawn); 1560 nM
NC1=Nc2ccc(Cl)cc2[C@@]1(O)c1ccccc1; 1360 nM
CC(C)C1(O)C(N)=Nc2ccc(Cl)cc21 (stereo not drawn); 2990 nM
CCOc1ccc(F)cc1[C@]1(O)C(N)=Nc2ccc(Cl)cc21 (stereo in doubt); 342 nM

Now for another entry.
Query :: For P. berghei ANKA strain, provide IC50 of CCOc1ccc(F)cc1[C@@]1(O)C(N)=Nc2ccc(Cl)cc21 (stereo in doubt) please.
Result :: 331 nM

* * *

Assay Summary: Erythrocyte lysis
Type: cell-based
Experimental Setup: erythrocytes, read-out: Selectivity, Mammalian cytotoxicity (IC50; μM) Eryth. Lysis
Measured Attribute: IC50

Completed entries (count: 2):
Cc1ccc2c(c1)C(O)(c1ccccc1)C(N)=N2 (stereo not drawn) [Compound 37]; > 168 µM
CCOc1ccc(F)cc1C1(O)C(N)=Nc2ccc(Cl)cc21 (racemic) [Compound 142]; > 125 µM

Now for another entry.
Query :: Tell me the measured IC50 of NC1=Nc2ccc(Cl)cc2C1(O)c1ccccc1 (stereo not drawn) [Compound 1] , please.
Result :: > 155 µM

* * *

Assay Summary: Erythrocyte lysis
Type: cell-based
Experimental Setup: erythrocytes, read-out: Selectivity, Mammalian cytotoxicity (IC50; μM) Eryth. Lysis
Parameter: IC50. Scope: all listed entries.

Completed entries (count: 8):
NC1=Nc2ccc(Cl)cc2[C@]1(O)c1ccccc1; > 155 µM
COc1cc(C2(O)C(N)=Nc3ccc(Cl)cc32)c(OC)cn1 (stereo not drawn); > 125 µM
NC1=Nc2ccc(Cl)cc2C1(O)Cc1ccccc1 (stereo not drawn); > 147 µM
CCOc1ccc(F)cc1[C@@]1(O)C(N)=Nc2ccc(Cl)cc21 (stereo in doubt); > 125 µM
CC(C)C1(O)C(N)=Nc2ccc(Cl)cc21 (stereo not drawn); > 178 µM
NC1=Nc2ccc(Cl)cc2[C@@]1(O)c1ccccc1; > 155 µM
CC(C)Oc1ccccc1C1(O)C(N)=Nc2ccc(Cl)cc21 (stereo not drawn); > 120 µM
CCOc1ccc(F)cc1[C@]1(O)C(N)=Nc2ccc(Cl)cc21 (stereo in doubt); > 125 µM

Query :: Tell me the measured IC50 of NC1=Nc2ccc(Cl)cc2C1(O)c1cccc2ccccc12 (stereo not drawn) , please.
Result :: > 129 µM

* * *

Parameter: IC50. Scope: all listed entries.
Assay Summary: Mammalian cytotoxicity, dermal fibroblast
Type: cell-based
Experimental Setup: human, normal human dermal fibroblasts (Clonetics #CC-2509); read-out: Selectivity, Mammalian cytotoxicity (IC50; μM) Dermal Fibroblast

Cc1ccc2c(c1)C(O)(c1ccccc1)C(N)=N2 (stereo not drawn) [Compound 37]; > 62.5 µM
CC(C)Oc1ccccc1C1(O)C(N)=Nc2ccc(Cl)cc21 (stereo not drawn) [Compound 146]; > 188 µM
NC1=Nc2ccc(Cl)cc2[C@@]1(O)c1ccccc1 [Compound 2]; > 242 µM
CCOc1ccc(F)cc1[C@]1(O)C(N)=Nc2ccc(Cl)cc21 (stereo in doubt) [Compound 266]; > 195 µM
CC(C)C1(O)C(N)=Nc2ccc(Cl)cc21 (stereo not drawn) [Compound 39]; > 62.5 µM
COc1cc(C2(O)C(N)=Nc3ccc(Cl)cc32)c(OC)cn1 (stereo not drawn) [Compound 202]; > 195 µM
NC1=Nc2ccc(Cl)cc2C1(O)Cc1ccccc1 (stereo not drawn) [Compound 38]; > 62.5 µM
CCOc1ccc(F)cc1C1(O)C(N)=Nc2ccc(Cl)cc21 (racemic) [Compound 142]; > 195 µM
NC1=Nc2ccc(Cl)cc2C1(O)c1cccc2ccccc12 (stereo not drawn) [Compound 11]; 24 µM
NC1=Nc2ccc(Cl)cc2C1(O)c1ccccc1 (stereo not drawn) [Compound 1]; > 242 µM

Query :: Tell me the measured IC50 of NC1=Nc2ccc(Cl)cc2[C@]1(O)c1ccccc1 [Compound 3] , please.
Result :: > 242 µM

Query :: Try CCOc1ccc(F)cc1[C@@]1(O)C(N)=Nc2ccc(Cl)cc21 (stereo in doubt) [Compound 267] next.
Result :: > 195 µM
